Tested on: 993429-296-R-J1-PDC complex spheroid growth, percent test/control;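 note: spheroids exposed to compounds for seven days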
ASSAY INFO: Anticancer human tumor 993429-296-R-J1-PDC patient-derived uterine sarcoma cell line growth inhibition [Asc]
MEASUREMENT CONDITIONS: second compound 0.01 µM; first compound 0.1 µM; stronger effect = lower value
PROPERTY LABEL: viability, T/C (%)
// note: answer is a bare numeric in %

Item under review: O=C(c1ccc(F)c(F)c1Nc1ccc(I)cc1F)N1CC(O)([C@@H]2CCCCN2)C1 + CNC(C)C(=O)NC1CN(S(=O)(=O)c2cccc(S(=O)(=O)N3CCC4CCC(C(=O)NC(c5ccccc5)c5ccccc5)N4C(=O)C(NC(=O)C(C)NC)C3)c2)CCC2CCC(C(=O)NC(c3ccccc3)c3ccccc3)N2C1=O . Reported viability, T/C?
48.9

Item under review: COc1c(OCCCN2CCOCC2)ccc2c3n(c(=NC(=O)c4cnc(N)nc4)nc12)CCN3 + CNC(C)C(=O)NC1CN(S(=O)(=O)c2cccc(S(=O)(=O)N3CCC4CCC(C(=O)NC(c5ccccc5)c5ccccc5)N4C(=O)C(NC(=O)C(C)NC)C3)c2)CCC2CCC(C(=O)NC(c3ccccc3)c3ccccc3)N2C1=O . Reported viability, T/C?
12.3

Item under review: C=C(F)C(=O)N1CCN(c2nc(OCC3CCCN3C)nc3c2CCN(c2cccc4cccc(Cl)c24)C3)CC1CC#N (stereo not drawn) + CNC(C)C(=O)NC1CN(S(=O)(=O)c2cccc(S(=O)(=O)N3CCC4CCC(C(=O)NC(c5ccccc5)c5ccccc5)N4C(=O)C(NC(=O)C(C)NC)C3)c2)CCC2CCC(C(=O)NC(c3ccccc3)c3ccccc3)N2C1=O . Reported viability, T/C?
59.8
